molecular target: Progesterone receptor (Homo sapiens) (UniProt P06401); assay: qHTS assay to identify small molecule antagonists of the progesterone receptor (PR) signaling pathway (AID 1346795); settings: PR-UAS-bla HEK293T, beta-lactamase FRET ratio, 16 h; series mostly up to 92.4 µM
Sequence (P06401 whole entry, looked up): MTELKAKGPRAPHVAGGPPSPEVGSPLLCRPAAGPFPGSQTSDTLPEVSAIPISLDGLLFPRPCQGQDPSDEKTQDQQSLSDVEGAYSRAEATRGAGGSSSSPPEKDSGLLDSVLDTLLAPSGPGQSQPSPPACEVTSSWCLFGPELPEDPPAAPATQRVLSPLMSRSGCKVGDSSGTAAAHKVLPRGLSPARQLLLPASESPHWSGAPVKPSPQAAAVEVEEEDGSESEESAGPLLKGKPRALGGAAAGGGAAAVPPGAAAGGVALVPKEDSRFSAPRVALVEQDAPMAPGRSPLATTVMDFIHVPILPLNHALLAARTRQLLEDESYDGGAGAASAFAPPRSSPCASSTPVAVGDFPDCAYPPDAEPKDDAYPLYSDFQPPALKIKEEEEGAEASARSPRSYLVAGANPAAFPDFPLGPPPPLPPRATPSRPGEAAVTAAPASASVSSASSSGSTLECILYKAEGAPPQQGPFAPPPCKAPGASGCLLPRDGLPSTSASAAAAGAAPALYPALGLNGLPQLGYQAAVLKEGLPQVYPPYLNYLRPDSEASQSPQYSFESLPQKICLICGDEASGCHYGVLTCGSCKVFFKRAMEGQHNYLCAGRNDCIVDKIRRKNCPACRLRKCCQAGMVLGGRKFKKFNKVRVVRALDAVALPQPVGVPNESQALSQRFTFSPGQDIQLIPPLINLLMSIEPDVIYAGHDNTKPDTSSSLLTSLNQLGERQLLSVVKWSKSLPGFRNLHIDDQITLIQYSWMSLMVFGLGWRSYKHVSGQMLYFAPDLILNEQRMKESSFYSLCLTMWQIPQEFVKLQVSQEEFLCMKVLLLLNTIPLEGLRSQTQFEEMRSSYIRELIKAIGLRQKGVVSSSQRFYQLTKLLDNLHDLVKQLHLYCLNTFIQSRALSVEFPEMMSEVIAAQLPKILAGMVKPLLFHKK
Results filed as inconclusive are left out. Active and inactive are the calls of the source. Calls come from the whole dose curve; as a rule, active = well fitted inhibition curve with a large enough effect in the signal ratio in the repeat runs (not every such curve was filed as active); inconclusive = weak or mixed curves; inactive = flat fitted curve, though single readings scatter; the % refers to the signal ratio.
// allowed return values: active, inactive

Compound: O=[N+]([O-])c1cccc(S(=O)(=O)NCCNS(=O)(=O)c2cccc([N+](=O)[O-])c2)c1
Class Assignment: inactive

Compound: CC(C)(C)C(=O)C(Oc1ccc(Cl)cc1)n1ccnc1 (stereo unspecified)
Class Assignment: active

Compound: CC1(C)C2=CCCC(C)(C)[C@]23CC[C@H]1C3
Class Assignment: inactive

Compound: O=C(Nc1ccc([N+](=O)[O-])cc1)Nc1ccc([N+](=O)[O-])cc1
Class Assignment: inactive

Compound: Nc1nccs1
Class Assignment: inactive

Query :: Status in this test for CCC(Cc1ccccc1)(C(=O)c1ccc(N2CCOCC2)cc1)N(C)C (stereo unspecified) ?
Result :: active

====

target: Cytochrome P450 2D6 (Homo sapiens) (UniProt P10635); assay: Cytochrome P450 Family 2 Subfamily D Member 6 (CYP2D6) small molecule antagonists: luciferase reporter qHTS assay (AID 1671196); conditions: P450-Glo CYP2D6 enzyme assay, luciferin luminescence, 1 h; series mostly up to 115 µM; note: nearly all actives have a fitted effect of over 50% in size
Sequence (P10635 whole entry, looked up): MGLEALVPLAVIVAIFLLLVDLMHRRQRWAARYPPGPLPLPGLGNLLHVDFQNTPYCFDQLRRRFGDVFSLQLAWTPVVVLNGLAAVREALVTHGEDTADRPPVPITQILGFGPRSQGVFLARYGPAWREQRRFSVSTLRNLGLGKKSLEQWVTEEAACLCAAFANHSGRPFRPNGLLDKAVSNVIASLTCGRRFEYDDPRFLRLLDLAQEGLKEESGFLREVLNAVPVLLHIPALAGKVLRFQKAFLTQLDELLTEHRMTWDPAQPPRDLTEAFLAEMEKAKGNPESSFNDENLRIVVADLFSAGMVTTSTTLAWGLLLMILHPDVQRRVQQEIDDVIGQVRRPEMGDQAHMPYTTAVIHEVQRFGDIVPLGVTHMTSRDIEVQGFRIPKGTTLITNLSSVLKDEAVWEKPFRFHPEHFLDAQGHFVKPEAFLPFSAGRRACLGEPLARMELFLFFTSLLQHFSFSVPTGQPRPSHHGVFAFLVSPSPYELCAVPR
Inconclusive results are not listed. The source made the active and inactive calls. Calls come from the whole dose curve; as a rule, active = well fitted inhibition curve with a large enough effect in the repeat runs; inconclusive = weak or mixed curves; inactive = no such curve, though single readings can be large or run the other way.
Could you please pick one outcome from this set? active, inactive

Molecule: Cn1c(=O)c2c(ncn2CC(=O)O)n(C)c1=O
Class Assignment: inactive

Query :: Assay outcome for CC1=CC(O)CC(C)(C)C1 (centres undefined) : what was it?
Result :: inactive

Query :: Moving on to O=C(O)Cc1ccc(-c2ccccc2)cc1
Result :: inactive

Query :: And O=c1[nH]c2ccc(S(=O)CCN3CCC(Cc4ccc(F)cc4)CC3)cc2o1 (centres undefined) ?
Result :: active

Query :: Next up: CCOC(=O)N1CCC(n2c(=O)[nH]c3cc(Cl)ccc32)CC1
Result :: inactive

Query :: Another molecule: CC1C2CC(CC2C2CCCC(O)C2)C1(C)C (centres undefined)
Result :: inactive

Query :: CC(=O)Oc1ccc2c(c1)CC[C@@H]1[C@@H]2CC[C@]2(C)[C@@H](O)CC[C@@H]12 , same question.
Result :: inactive

Query :: Same lookup for Cc1cc(S(=O)(=O)O)ccc1N=Nc1c(O)ccc2ccccc12 , please.
Result :: active

====

test: A CellTox Green Cytotoxicity Assay to monitor cytotoxicity in HepG2 cells - 40 hour (AID 1224879); conditions: CellTox Green fluorescence; series mostly up to 76.8 µM; note: nearly all actives have a fitted effect of over 40% in size
Inconclusive results are not listed. Activity calls are given as the source filed them. Calls follow the shape of the dose curve; as a rule, active = well fitted activation curve with a large enough effect in the repeat runs; inconclusive = weak or mixed curves; inactive = flat fitted curve, though single readings scatter.
A correct response names exactly one class from 1 for active, -1 for inactive

Worked cases, answers included:
Molecule: Cc1oc(C)c(C(=O)Nc2ccccc2)c1C
Class Assignment: -1
//
Molecule: COC(=O)[C@@H]1CC2=CC(=O)CC[C@]2(C)[C@@]23O[C@@H]2C[C@@]2(C)[C@@H](CC[C@@]24CCC(=O)O4)[C@H]13
Class Assignment: -1
//
Molecule: CCN(CC)CCNC(=O)c1ccc(NC(C)=O)cc1
Class Assignment: -1
//
Molecule: CCC(C)(O)CCC=C(C)C (stereo not given)
Class Assignment: -1

Query :: I'd appreciate the recorded outcome for O=C(Nc1ccc([N+](=O)[O-])cc1)Nc1ccc([N+](=O)[O-])cc1 from this test.
Result :: 1

Query :: Note, next up: Cc1ccc(S)cc1
Result :: 1

Query :: What would you report for O=C(c1ccc(O)cc1)c1ccc(Cl)cc1 ?
Result :: -1

Query :: Also, CCn1nc(C)c2c1C(=O)NCC(c1ccc(O)cc1)=N2 please.
Result :: -1

Query :: Same for CCOC(=O)c1ccccc1OC
Result :: -1

Query :: Next molecule: Cc1ccc(Nc2nccc(N(C)c3ccc4c(C)n(C)nc4c3)n2)cc1S(N)(=O)=O
Result :: -1

Query :: Another molecule to check: CC(Cl)C(Cl)Cl (stereo not given)
Result :: -1

Query :: Record: O=C(O)c1c(O)c(-c2ccccc2)nc2ccccc12
Result :: -1

Query :: Moving on to CCCCC(CC)C(=O)OCCOCCOCCOCCOC(=O)C(CC)CCCC (stereo not given)
Result :: -1

Query :: Note, next up: CC(C)c1nnc2ccc(-c3ocnc3-c3cc(F)ccc3F)cn12
Result :: -1

Query :: What about this molecule? CC(=O)OCC(=O)[C@@]12OC(C)(C)O[C@@H]1C[C@H]1[C@@H]3C[C@H](F)C4=CC(=O)C=C[C@]4(C)[C@@]3(F)[C@@H](O)C[C@@]12C
Result :: -1

Query :: Now the molecule CC(C)C(OC(=O)c1ccccc1)C(C)(C)COC(=O)c1ccccc1 (stereo not given)
Result :: -1

====

Assay: qHTS RealTime-Glo MT Cell Viability Assay in HepG2 cells - 8 hour (AID 1224873); note: % is set by controls: 0 for no effect and ±100 for the full control effect; nearly all actives have a fitted effect of over 55% in size
Settings: RealTime-Glo luminescence; series mostly up to 76.8 µM
Excerpt: National Center for Advancing Translational Sciences [NCATS] NIH Chemical Genomics Center [NCGC] U.S. Environmental Protection Agency [EPA] National Institutes of Environmental Health Sciences [NIEHS] National Toxicology Program [NTP] U.S. Food and Drug Administration [FDA] Measure of cell viability is critical in the cell-base assay. Analysis of cell viability is necessary for the characterization of cell responses to cytotoxic drugs and environmental stress. […]
Records with an inconclusive call do not appear. Calls of active or inactive are those of the source. Calls come from the whole dose curve; as a rule, active = well fitted cell-killing curve with a large enough effect in the repeat runs; inconclusive = weak or mixed curves; inactive = flat fitted curve, though single readings scatter.
Assay Metric: outcome

Check out these entries, answers already filled in.
Smiles Structure: NC(=O)N(O)[C@@H]1COc2cc(OCc3ccccc3)ccc21
Experimental Value: inactive
//
Smiles Structure: C[C@@H]1C[C@H]2[C@@H]3CCC4=CC(=O)C=C[C@]4(C)[C@@]3(F)[C@@H](O)C[C@]2(C)[C@@]1(O)C(=O)CO
Experimental Value: inactive
//
Smiles Structure: Cc1cc(O)c(C(C)C)cc1Cl
Experimental Value: inactive
//
Smiles Structure: COC(=O)CC(=O)C(C)(C)C
Experimental Value: inactive
//
Smiles Structure: Cc1oc(C)c(C(=O)Nc2ccccc2)c1C
Experimental Value: inactive

// next item, outcome requested
Query :: Please look up its outcome: Cc1ccc(S)cc1
Result :: inactive

====

assay: qHTS assay to identify small molecule agonists of the estrogen receptor alpha (ER-alpha) signaling pathway in the presence of an antagonist - cell viability counter screen (AID 1259386); conditions: VM7Luc4E2 viability, CellTiter-Fluor fluorescence, 22 h; series mostly up to 92.4 µM;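 note: cells exposed to compounds for 22 h at 37 °C before the viability read; nearly all actives have a fitted effect of over 30% in size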
Records with an inconclusive call do not appear. The source made the active and inactive calls. Calls come from the whole dose curve; as a rule, active = well fitted cell-killing curve with a large enough effect in the repeat runs; inconclusive = weak or mixed curves, or effect the other way; inactive = no such curve, though single readings can be large or run the other way.
// allowed return values: t for active, f for inactive

Would you please look over these solved cases?
Compound: CSc1ccc(Oc2ccc(S(N)(=O)=O)cc2CN(C)C)cc1C
Class Assignment: f

Compound: CC1=C(C=O)C(C)(C)CCC1
Class Assignment: f

Compound: CCC(C)(O)CCC=C(C)C (configuration not stated)
Class Assignment: f

Query :: How was CC(=O)Nc1ccc(N)cc1 classified in this test?
Result :: f

Query :: What do you have for CC(C)OCC1CO1 (configuration not stated) ?
Result :: f

Query :: Another compound to look at: CO[C@H]1C=CO[C@@]2(C)Oc3c(C)c(O)c4c(O)c(c5c(c4c3C2=O)=NC2(CCN(CC(C)C)CC2)N=5)NC(=O)/C(C)=C\C=C/[C@H](C)[C@H](O)[C@@H](C)[C@@H](O)[C@@H](C)[C@H](OC(C)=O)[C@@H]1C
Result :: t

Query :: Please answer likewise for COc1cc2c(cc1OC)-c1cc(=Nc3c(C)cc(C)cc3C)n(C)c(=O)n1CC2
Result :: f

Query :: Input COC(=O)c1cc(Cl)ccc1NS(=O)(=O)C(F)(F)F
Result :: f

====

Test: A CellTox Green Cytotoxicity Assay to monitor cytotoxicity in HepG2 cells - 8 hour (AID 1224890); note: % is set by controls: 0 for no effect and ±100 for the full control effect; nearly all actives have a fitted effect of over 45% in size
Settings: CellTox Green fluorescence; series mostly up to 76.8 µM
Text: National Center for Advancing Translational Sciences [NCATS] NIH Chemical Genomics Center [NCGC] U.S. Environmental Protection Agency [EPA] National Institutes of Environmental Health Sciences [NIEHS] National Toxicology Program [NTP] Cell-based models are critical for drug discovery. […] Viable cells produce no appreciable increases in fluorescence. Therefore, the fluorescence signal produced by the binding interaction with dead cell DNA is proportional to cytotoxicity. […]
Inconclusive results are not listed. Activity calls are given as the source filed them. Calls follow the shape of the dose curve; as a rule, active = well fitted activation curve with a large enough effect in the repeat runs; inconclusive = weak or mixed curves; inactive = flat fitted curve, though single readings scatter.
Assay Metric: cytotoxicity increase

Here's what some known entries look like.
Smiles Structure: C[C@]12CCC(=O)C=C1C=C[C@@H]1[C@@H]2CC[C@@]2(C)[C@H]1CC[C@@]21CCC(=O)O1
Experimental Value: inactive
//
Smiles Structure: CC(C)C(=O)O
Experimental Value: inactive
//
Smiles Structure: CCOC(=O)c1ccccc1OC
Experimental Value: inactive
//
Smiles Structure: O=C(Nc1ccccc1)Nc1ccccc1
Experimental Value: inactive

Value sought for every listed molecule: cytotoxicity increase.
1. CCCCCCOC(=O)CCCCCCCC(=O)OCCCCCC
2. CCCCCC=CCC=CCCCCCCCC(=O)OCC
3. Nc1ccc(S(=O)(=O)O)cc1

Result ::
inactive
inactive
inactive

Data provenance: PubChem BioAssay (Tox21)
